The measurements presented in this section are drawn from the Immune Epitope Database (IEDB).

# System tested: HLA-A*01:01
# Test summary: IEDB peptide-MHC binding, purified MHC/direct/fluorescence; filed as Kd, often an IC50 or EC50 that approximates it; bounds were set here for any values at or beyond the usual limits of such assays
# Condition label: source organism: Francisella tularensis subsp. holarctica LVS
Readout name: Kd (nM)
# unit: nM | format: bare number

Prompt: Fill in the blank: the reported Kd of "LTDKSGSEY" is ____.
Response: 1.2

###

# System tested: HLA-A*02:12
# Test summary: IEDB peptide-MHC binding, purified MHC/direct/fluorescence; filed as Kd, often an IC50 or EC50 that approximates it; bounds were set here for any values at or beyond the usual limits of such assays
# Condition label: source organism: Influenza A virus(A/swine/Shandong/fZC/2003(H9N2))
Readout name: Kd (µM)
# unit: µM | format: bare number

Prompt: Fill in the blank: the reported Kd of "TMLYNKMEF" is ____.
Response: 3.47

###

# System tested: HLA-A*02:03
# Test summary: IEDB peptide-MHC binding, purified MHC/competitive/fluorescence; filed as Kd, often an IC50 or EC50 that approximates it; bounds were set here for any values at or beyond the usual limits of such assays
# Condition label: source organism: Mycobacterium tuberculosis variant bovis BCG str. Pasteur 1173P2
Readout name: Kd

Prompt: Fill in the blank: the reported Kd of "WEITYLGTT" is ____.
Response: ≥ 20 µM

###

# System tested: HLA-B*44:03
# Test summary: IEDB peptide-MHC binding, purified MHC/competitive/radioactivity; filed as Kd, often an IC50 or EC50 that approximates it; bounds were set here for any values at or beyond the usual limits of such assays
# Condition label: source organism: Dengue virus 2 Jamaica/1409/1983
Readout name: log10 of Kd (log10 of the value in nM)
Transform log10 | Measure Kd | Unit nM

Prompt: Observed log10 of Kd on HLA-B*44:03 for "QWFLDLPLPW" , please.
Response: 3.44

Prompt: Observed log10 of Kd on HLA-B*44:03 for "GERKKLKPRW" , please.
Response: 3.16

Prompt: Observed log10 of Kd on HLA-B*44:03 for "AEAIFKLTYQ" , please.
Response: 2.43

Prompt: Observed log10 of Kd on HLA-B*44:03 for "LERAADVKW" , please.
Response: 2.33

Others:
Prompt: Observed log10 of Kd on HLA-B*44:03 for "SEIPNLDIIG" , please.
Response: 3.04

###

# System tested: HLA-A*03:01
# Test summary: IEDB peptide-MHC binding, purified MHC/direct/fluorescence; filed as Kd, often an IC50 or EC50 that approximates it; bounds were set here for any values at or beyond the usual limits of such assays
# Condition label: source organism: Encephalitozoon cuniculi GB-M1
pKd: −log10 of the molar value.
Readout name: pKd

Prompt: Observed pKd on HLA-A*03:01 for "RNMSRIFPY" , please.
Response: ≤ 4.70

###

Measured Kd values are reported for all entries that follow.
# System tested: HLA-B*35:01
# Test summary: IEDB peptide-MHC binding, purified MHC/competitive/fluorescence; filed as Kd, often an IC50 or EC50 that approximates it; bounds were set here for any values at or beyond the usual limits of such assays
# Condition label: source organism: Salmonella enterica subsp. enterica serovar Typhi
# unit: pM | format: bare number

Prompt: Observed Kd on HLA-B*35:01 for "FAADKDSLY" , please.
Response: 200

Others:
Prompt: Observed Kd on HLA-B*35:01 for "FAHDDRYLY" , please.
Response: 200
